System: DU-145 prostate
method-description: NCI tumour cell line growth inhibition, 48 h

compound	assayed-target	TGI
NCCCCC(NC(=O)C(N)CCCN=C(N)N)C(=O)NC(CCCCN)C(=O)NC(CCCN=C(N)N)C(=O)NC(CCCN=C(N)N)C(=O)NC(CCC(N)=O)C(=O)NC(CCCN=C(N)N)C(=O)NC(CCCN=C(N)N)C(=O)NC(CCCN=C(N)N)C(=O)NCC(=O)NCC(=O)O (configuration not stated)	DU-145 prostate	> 50 µM
O=c1[nH]c(NCc2cccnc2)nc2nc[nH]c12	DU-145 prostate	> 100 µM
O=C1c2c(c(=O)[nH]c3ccccc23)[C@H](c2ccccc2)[C@@H]2CCCN12	DU-145 prostate	27.5 µM
CC1=C([Te]c2ccccc2)C(=O)c2ccccc2C1=O	DU-145 prostate	1.58 µM
Cc1c(NC(=S)Nc2ccc([N+](=O)[O-])cc2)c(=O)n(-c2ccccc2)n1C	DU-145 prostate	> 100 µM
CC(C)(C)OC(=O)NCC(CNC(=O)OC(C)(C)C)C(N)=O	DU-145 prostate	> 100 µM
Cc1nc(OCc2ccccc2)c2ncn(CCO)c2n1	DU-145 prostate	> 100 µM
CCN1CCN(CCNc2nccc(-c3c(-c4ccc(F)c(O)c4)nc4occn34)n2)S1(=O)=O	DU-145 prostate	> 100 µM
C=C(C)[C@@H]1CC[C@]2(CO)CC[C@]3(C)[C@H](CC[C@@H]4[C@@]5(C)CCCNC(C)(C)[C@@H]5CC[C@]43C)[C@@H]12	DU-145 prostate	3.02 µM
C(=N\Nc1ncc(-c2cc3cc4c(cc3o2)OCO4)s1)/c1ccco1	DU-145 prostate	5.49 µM
COc1ccc2c(c1)c(-c1nc(-c3cn(C)c4ccncc34)cs1)cn2C	DU-145 prostate	3.34 µM
COC(=O)CCc1ccc(CCC(=O)OC)cc1	DU-145 prostate	> 100 µM
Cc1nc(-c2ccccc2)cn2c1nc1ccccc12	DU-145 prostate	> 100 µM
Cc1ccc2nc3ccccc3c(C3C4C(=O)N(c5ccc(F)cc5)C(=O)C4ON3C(C(N)=O)c3ccccc3)c2c1 (configuration not stated)	DU-145 prostate	> 100 µM
COc1ccc(-c2ncnc3c2ncn3CC#CCCl)cc1	DU-145 prostate	18.4 µM
COc1ccc(/[N+]([O-])=C/c2ccc(OC(=S)S)c(OC)c2)cc1	DU-145 prostate	> 100 µM
Fc1cccc(COc2ccc(Nc3ncnc4onc(-c5ccccc5)c34)cc2)c1	DU-145 prostate	0.806 µM

###

System: PC-3 prostate
method-description: NCI tumour cell line growth inhibition, 48 h
# Lookup of reported TGI keyed by entry
recorded-metric: TGI

> print(dat)
                                    molecule  reported.result
 1  Cc1c(NC(=S)Nc2ccc([N+](=O)[O-])cc2)c(=O)n(-c2ccccc2)n1C         > 100 µM
 2  O=S(=O)(N=C1C(Cl)=C(Cl)C(=NS(=O)(=O)c2ccccc2)C(Cl)=C1Cl)c1ccccc1         > 100 µM
 3  NC(=S)N/N=C/c1ccc(OC(=O)COc2cc(Cl)c(Cl)cc2Cl)cn1         > 100 µM
 4  COc1cc(CCC[P+](c2ccccc2)(c2ccccc2)c2ccccc2)c(OC)c2c1OCO2         > 100 µM
 5  COc1cc(-c2nn(-c3cccc(NC(=O)Nc4ccc(Cl)c(C(F)(F)F)c4)c3)cc2-c2ccncc2)ccc1Cl          2.45 µM
 6                          NCC(=O)Nc1ccccc1         > 100 µM
 7  COc1ccc2[nH]cc(CCNC(=O)[C@H](Cc3ccc(O)cc3)NC(=O)[C@@H](NCC(F)(F)F)C(C)C)c2c1         > 100 µM
 8  COc1ccc2c(c1)CCC1C2CC[C@@]2(C)C1CC[C@@H]2NC(=O)Cc1ccc(O)c(O)c1 (stereo not given in full)          19.4 µM
 9  CO/C=C(/C(=O)OC)[C@@H]1C[C@@H]1c1ccc2ccccc2c1         > 100 µM
10  O=C1c2c(c(=O)[nH]c3ccccc23)[C@H](c2ccccc2)[C@@H]2CCCN12         > 100 µM
11  NC(=O)c1cc(N2CC2)c([N+](=O)[O-])cc1[N+](=O)[O-]         > 200 µM
12  Cc1cc2c(F)c(Oc3ncnc(Nc4ccc(N5C[C@@H](C)N[C@@H](C)C5)cc4)c3C#N)cc(F)c2[nH]1          11.4 µM
13  COC(=O)C1CCC(=O)N1C(c1ccc(OC)cc1)c1cc(OC)c(OC)c(OC)c1 (stereo not given)        > 37.4 µM
14  Nn1c(CCCCCCCCc2nnc(-c3c(O)ccc4ccccc34)n2N)nnc1-c1c(O)ccc2ccccc12         > 100 µM
15    O=C1C(Cl)=C(Cl)C(=O)C(CCNc2nccs2)=C1Cl          42.2 µM
16  Cc1ccc(S(=O)(=O)ON2C(=O)c3cccc4cc([N+](=O)[O-])cc(c34)C2=O)cc1         > 100 µM
17  COc1cc2nc(N3CCCN(C)CC3)nc(NC3CCN(Cc4ccccc4)CC3)c2cc1OC          20.1 µM
18  CC(NC1=NCCO1)c1ccccc1Cl (stereo not given)         > 100 µM
19             CN1CCC2(CC1)SSC1(CCN(C)CC1)S2         > 100 µM
20       Nc1ncnc2c1ncn2[C@H]1C=C[C@@H](NO)C1         > 100 µM

###

Test system: LXFL 529 NSCLC
method-description: NCI tumour cell line growth inhibition, 48 h
Measured TGI, listed per entry for reference.

compound	TGI
COC(=O)C1=CO[C@@H](C)[C@@H]2Cn3ccc4c5ccccc5nc-4c3C[C@H]12	> 100 µM
CC(Oc1ccc2c(-c3ccc(Cl)cc3)cc(=O)oc2c1)C(=O)O (stereo unspecified)	> 100 µM
CCC[CH2][Sn](=[O])[CH2]CCC	> 50 µM
O=C(C[n+]1ccccc1)N/N=C(/CCC(=O)N(Cc1ccccc1)Cc1ccccc1)CC(=O)c1ccccc1	> 100 µM
CSC(=O)C[C@@]12O[C@@H]([C@@H](C)C3CCC4[C@@H]5C(O)CC6=CC(=O)C=C[C@]6(C)C5CC[C@@]43C)C[C@](C)(O1)C(C)(C)O2 (stereo partly specified)	26.4 µM
CC(C)(C)C1=CC(=N/N=c2\scc(-c3ccccc3)n2-c2ccccc2)C=C(C(C)(C)C)C1=O	> 100 µM

###

System: MOLT-4 leukemia
method-description: NCI tumour cell line growth inhibition, 48 h
// GI50 lookup, one value per entry

compound	GI50
Oc1ccccc1-c1nn(CNc2ccc(Cl)cc2)c(=S)o1	20700 nM
CCC[CH2][Sn](=[O])[CH2]CCC	> 50000 nM
CCC1=C(c2ccc(OC)cc2)C(C)(C)Oc2c1ccc(O)c2CN1CCCC1	2180 nM
FC1(F)ON2CCc3ccccc3C2[C@H]1c1ccccc1 (stereo not given in full)	> 100000 nM
CC1=C(C#N)C23C(=O)N(c4ccccc4)C(=O)C2=C(O)C=CC3(O)N1Cc1ccc(Cl)cc1Cl (stereo not given)	2920 nM
CC(=O)O.CN1[CH-]N(Cc2ccc(C#N)cc2)c2ccccc21.[Ag+]	26100 nM
COc1cc2nc(N3CCCN(C)CC3)nc(NC3CCN(Cc4ccccc4)CC3)c2cc1OC	1800 nM
COc1cc2nc(Nc3cccc(Cl)c3)nc(N)c2cc1OC	2780 nM
CCOC(=O)C(=Cc1ccc(C#N)cc1)C(=O)OCC	3090 nM
CCOC(=O)c1[nH]c2cc(Cl)ccc2c1[C@@H](C(=O)NC(C)(C)C)N(CC)C(=O)CCCCC#Cc1cccc2c1CN(C1CCC(=O)NC1=O)C2=O (stereo not given in full)	< 10 nM

###

System: T-47D breast
method-description: NCI tumour cell line growth inhibition, 48 h; in the data active = GI50 below about 0.43 µM; inactive = the rest
Outcome codes: y for active, n for inactive

> print(dat)
                            compound.string  label
1  CCC(CC)n1cnc2c(-c3cnc(N)cn3)nc(N3CC4CCC(C3)O4)nc21      y
2  CCN1CCN(CCNc2nccc(-c3c(-c4ccc(F)c(O)c4)nc4occn34)n2)S1(=O)=O      n
3      O=C(O)Cc1cccc2c(=O)cc(-c3ccccc3)oc12      n
4  NC(=S)N/N=C/c1ccc(OC(=O)COc2cc(Cl)c(Cl)cc2Cl)cn1      n
5  C=C(C)[C@@H]1CC[C@]2(CO)CC[C@]3(C)[C@H](CC[C@@H]4[C@@]5(C)CCCNC(C)(C)[C@@H]5CC[C@]43C)[C@@H]12      n
